target: human 5-HT2A receptor (Homo sapiens, UniProt P28223); construct: expressed in transfected cells; host or cells: CHO-K1; assay: Human 5-HT2A functional assay (calcium mobilisation in CHO-K1 cells); type: cell-based; conditions: potency in functional assay; agonism (first addition), calcium mobilisation; listed as 4.B
Sequence (P28223 whole entry): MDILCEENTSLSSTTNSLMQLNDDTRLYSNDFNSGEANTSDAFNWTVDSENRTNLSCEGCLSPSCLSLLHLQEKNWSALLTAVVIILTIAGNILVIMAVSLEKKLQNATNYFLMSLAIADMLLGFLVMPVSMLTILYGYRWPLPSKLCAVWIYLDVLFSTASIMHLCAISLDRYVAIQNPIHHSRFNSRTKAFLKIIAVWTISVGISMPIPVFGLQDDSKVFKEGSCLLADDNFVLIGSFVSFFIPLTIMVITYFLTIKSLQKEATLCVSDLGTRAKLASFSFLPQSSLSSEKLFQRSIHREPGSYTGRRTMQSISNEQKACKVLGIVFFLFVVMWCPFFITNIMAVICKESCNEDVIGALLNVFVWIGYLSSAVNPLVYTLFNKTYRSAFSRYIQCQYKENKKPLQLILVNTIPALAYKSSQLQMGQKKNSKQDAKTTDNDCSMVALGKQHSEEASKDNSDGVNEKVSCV
pEC50: −log10 of the molar value.
ENDPOINT: pEC50

INSERT INTO measurements (molecule, endpoint, result) VALUES
  ('CC1CNCc2cccc3c2N1CCC3C(F)(F)F (single isomer, unassigned) [Isomer 4.B]', 'pEC50', '< 5.00');

###

Target: 5-HT2C receptor (Homo sapiens, UniProt P28335)
Construct: host or cells: U2OS
Sequence (P28335 33-458): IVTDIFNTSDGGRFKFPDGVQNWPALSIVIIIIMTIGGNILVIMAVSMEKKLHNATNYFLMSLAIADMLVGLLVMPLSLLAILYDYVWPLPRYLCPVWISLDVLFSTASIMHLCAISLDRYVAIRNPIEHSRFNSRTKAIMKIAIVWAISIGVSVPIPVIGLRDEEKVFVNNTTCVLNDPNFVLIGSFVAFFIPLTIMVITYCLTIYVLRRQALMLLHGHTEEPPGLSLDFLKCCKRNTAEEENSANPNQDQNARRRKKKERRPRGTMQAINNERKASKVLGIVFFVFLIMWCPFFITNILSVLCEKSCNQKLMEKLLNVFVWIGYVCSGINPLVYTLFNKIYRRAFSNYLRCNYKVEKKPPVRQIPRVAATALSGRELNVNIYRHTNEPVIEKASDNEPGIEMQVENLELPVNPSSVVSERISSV
Sequence (P32121 whole entry partner): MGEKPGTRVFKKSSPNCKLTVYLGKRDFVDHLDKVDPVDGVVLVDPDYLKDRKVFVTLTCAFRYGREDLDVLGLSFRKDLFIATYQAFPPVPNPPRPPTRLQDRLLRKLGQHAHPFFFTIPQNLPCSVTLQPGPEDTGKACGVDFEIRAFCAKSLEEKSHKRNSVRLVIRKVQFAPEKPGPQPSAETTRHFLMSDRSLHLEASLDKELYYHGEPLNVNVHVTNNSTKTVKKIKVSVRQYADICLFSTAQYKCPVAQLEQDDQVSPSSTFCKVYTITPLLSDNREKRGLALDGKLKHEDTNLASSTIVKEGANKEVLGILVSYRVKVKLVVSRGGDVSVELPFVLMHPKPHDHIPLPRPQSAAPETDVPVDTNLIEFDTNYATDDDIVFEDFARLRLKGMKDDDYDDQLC
Experiment: Human 5-HT2C functional assay (beta-arrestin2 recruitment, U2OS_HTR2C_β-Arrestin cells)
Format: cell-based
Conditions: potency in functional assay; beta-arrestin2 recruitment, 1.5 h incubation
Procedure: 1. Human 5-HT2C Functional Assay The functional activity of compounds of formula I was assayed by incubation with U2OS_HTR2C_β-Arrestin cells (DiscoverX, 93-0289C3) to induce beta-arrestin2 recruitment to the 5-HT2C receptor. […] The enzyme complementation results in enzyme activity, which is measured following the termination of the agonist incubation using DiscoveRx's detection reagent, which contains a chemiluminescent substrate which produces a high intensity signal. […]
pEC50: −log10 of the molar value.
ENDPOINT: pEC50

INSERT INTO assay_data (molecule, endpoint, result) VALUES
  ('CC1CNCc2cccc3c2N1CCC3C(F)F (single isomer, unassigned) [Isomer 5.A]', 'pEC50', '> 7.70'),
  ('CC1CNCc2cccc3c2N1CCC3C(F)F (single isomer, unassigned) [Isomer 5.C]', 'pEC50', '6.00 to 6.70'),
  ('CC1CNCc2cccc3c2N1CCC3C(F)(F)F (stereo not shown) [Example 4]', 'pEC50', '6.70 to 7.70'),
  ('CC1CNCc2cccc3c2N1CCC3C(F)F (single isomer, unassigned) [Isomer 5.D]', 'pEC50', '6.00 to 6.70');
